Reference source for all entries: patent US20250084155A1

Quick list: % Diss per entry.
biological target: T1, HSP70 (human HSP70; the antigen of the binning, humanization and variant binding assays) (human, UniProt P0DMV8 1-641, limits assumed); assay: BLI, anti-human Fc capture, antigen 100 nM
T1 construct: also called hu HSP70
T1 sequence (P0DMV8 whole entry, change not shown): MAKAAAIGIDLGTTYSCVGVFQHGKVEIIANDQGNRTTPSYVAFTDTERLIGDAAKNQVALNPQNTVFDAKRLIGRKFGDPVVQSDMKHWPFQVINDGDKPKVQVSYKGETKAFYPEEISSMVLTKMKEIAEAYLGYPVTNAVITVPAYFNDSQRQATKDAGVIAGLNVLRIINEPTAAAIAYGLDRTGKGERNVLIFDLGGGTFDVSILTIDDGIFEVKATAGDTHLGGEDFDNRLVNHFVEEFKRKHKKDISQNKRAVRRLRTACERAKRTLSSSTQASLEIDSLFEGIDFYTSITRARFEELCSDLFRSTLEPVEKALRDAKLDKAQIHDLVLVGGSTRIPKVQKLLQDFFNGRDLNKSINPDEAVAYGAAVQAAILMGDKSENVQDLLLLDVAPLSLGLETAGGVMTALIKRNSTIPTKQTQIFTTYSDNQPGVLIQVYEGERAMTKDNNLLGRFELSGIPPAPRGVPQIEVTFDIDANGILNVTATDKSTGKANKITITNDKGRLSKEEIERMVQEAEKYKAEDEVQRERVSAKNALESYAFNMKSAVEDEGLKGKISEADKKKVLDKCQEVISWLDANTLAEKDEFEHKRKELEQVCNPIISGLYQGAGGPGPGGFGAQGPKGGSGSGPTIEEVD

As a guide, the following entries are already answered.
# binder, % Diss
data = [
    ("h77A-1.45 (antibody, V domains shown, captured by anti-human Fc) VH: QIQLVQSGVEVKKPGASVKVSCKASGYTFTNYGMNWVRQAPGQGLEWMGWINTYTGEPTYADDFKGRFTFTTDTSTSTVYMELRSLRSDDTAVYFCARYDHAMDYWGQGTLVTVSS VL: EIVLTQSPDSLAVSLGERATINCKSSQSLLNSGTRKNYLAWYQQKAGQSPKLLIYWTSTRESGVPDRFSGSGSGTDFTLTIDSLQAEDVAVYYCKQSYSLYTFGGGTKVEIK", "33.9%"),
    ("h77A-1.80 (antibody, V domains shown, captured by anti-human Fc) VH: QIQLVQSGAEVKKPGASVKVSCKASGYTFTNYGMNWVRQAPGQGLEWMGWINTYTGEPKYADDFKGRFTFTTDTSTSTAYMELRSLRSDDTAVYFCARYDHVMDYWGQGTLVTVSS VL: EIVLTQSPDSLAVSLGERATINCKSSQSLLNSGTRKNYLSWYQQKPGQSPKLIIYWTSTRESGVPDRFSGSGSGTDFTLTIDSLQAEDVAVYYCKQSYTLYTFGGGTKVEIK", "-8.84%"),
]

Lab note: next binder to report on.
# query: % Diss of entry h77A-1.81 (antibody, V domains shown, captured by anti-human Fc) VH: QIHLVQSGAEVKKPGASVKVSCKASGYIFTNYGMNWVRQAPGQGLEWMGWINTYTGEPTYADDFKGRFTFTTDTSTSTVYMELRSLRSDDTAVYFCVRYDHAMDYWGQGTLVTVSS VL: EIVLTQSPDSLAVSLGERATINCKSSQSLFNSGTRKNYLAWYQQKAGQSPKLLIYWTSTRESGVPDRFSGSGSGTDFTLTIDSLQAEDVAVYYCKQSYTLYTFGGGTKVEIK
30.1%
